All values here come from patent US20100298299A1.

Measured pIC50 by item
molecular target: recombinant human B1 receptors (Homo sapiens, UniProt P46663); construct: host or cells: CHO (CHO-B1); assay: Functional assay: antagonist potency by cytosolic calcium measurement in CHO-B1 cells; format: cell-based; conditions: CHO-B1 cells, inhibition of LysDABK (EC80)-evoked [Ca2+]i elevation; read-out: B1 func.
Sequence (P46663 whole entry): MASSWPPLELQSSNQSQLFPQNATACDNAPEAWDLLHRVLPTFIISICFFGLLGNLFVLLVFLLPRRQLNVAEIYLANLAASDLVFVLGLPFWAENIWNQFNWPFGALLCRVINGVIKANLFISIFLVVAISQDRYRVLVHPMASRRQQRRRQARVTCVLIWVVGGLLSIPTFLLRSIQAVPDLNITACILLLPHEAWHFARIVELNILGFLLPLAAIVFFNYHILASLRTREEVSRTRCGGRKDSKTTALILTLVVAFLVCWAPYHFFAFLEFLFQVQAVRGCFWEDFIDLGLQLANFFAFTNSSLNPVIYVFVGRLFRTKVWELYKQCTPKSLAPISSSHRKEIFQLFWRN
pIC50: −log10 of the molar value.

// known answers, use as guide
The recorded pIC50 for entry O=C(NCC(=O)N1CCC(CCN2CCCC2)CC1)c1ccc(S(=O)(=O)Nc2ccccc2Sc2ccccc2)cc1 [Example 2] equals > 7.70

The recorded pIC50 for entry O=C(N[C@H](Cc1ccc(O)cc1)C(=O)N1CCC(O)CC1)c1ccc(S(=O)(=O)Nc2ccccc2Oc2ccccc2)cc1 [Example 29] equals > 7.70

The recorded pIC50 for entry O=C(NCC(=O)N1CCCN(CCCN2CCCC2)CC1)c1ccc(S(=O)(=O)Nc2ccccc2Sc2ccccc2)cc1 [Example 7] equals 7.00 to 7.70

The recorded pIC50 for entry O=C(NCC(=O)N1CCN(CCCN2CCCC2)CC1)c1ccc(S(=O)(=O)Nc2ccccc2Sc2ccccc2)cc1 [Example 5] equals 7.00 to 7.70

The recorded pIC50 for entry O=C(N[C@H](Cc1ccc(O)cc1)C(=O)N1CCC(CCN2CCCC2)CC1)c1ccc(S(=O)(=O)Nc2ccccc2Oc2ccccc2)cc1 [Example 31] equals > 7.70

Next:
The recorded pIC50 for entry O=C(NCC(=O)N1CCC(N2CCCC2)CC1)c1ccc(S(=O)(=O)Nc2ccccc2Sc2ccccc2)cc1 [Example 3] equals > 7.70

The recorded pIC50 for entry CN(C)CCCN1CCN(C(=O)CNC(=O)c2ccc(S(=O)(=O)Nc3ccccc3Sc3ccccc3)cc2)CC1 [Example 6] equals 7.00 to 7.70

The recorded pIC50 for entry O=C(N[C@H](Cc1ccc(O)cc1)C(=O)N1CCC(CO)CC1)c1ccc(S(=O)(=O)Nc2ccccc2Oc2ccccc2)cc1 [Example 30] equals > 7.70
